biological target: KLK5 (UniProt Q9Y337 67-293, limits assumed); experiment: cell-based or functional assay
Sequence (Q9Y337 67-293 limits assumed): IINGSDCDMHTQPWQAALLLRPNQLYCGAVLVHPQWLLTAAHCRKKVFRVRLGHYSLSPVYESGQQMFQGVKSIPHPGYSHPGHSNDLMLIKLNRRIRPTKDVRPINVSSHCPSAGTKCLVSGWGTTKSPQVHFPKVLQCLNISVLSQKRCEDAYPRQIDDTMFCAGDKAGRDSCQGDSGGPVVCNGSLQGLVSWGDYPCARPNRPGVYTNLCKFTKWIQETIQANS

BINDER: Spink9-183.Fc (SEQ ID NO: 57) (Fc fusion, Mutant SPINK9 domain fused directly to a C-terminal IgG Fc) IECAKQTKQMVDCSHYKKLPPQQQAYCTRDYDPICGSDGKTYKNDCFFCSKVKKTDGTLKFVHFGKCEPKSCDKTHTCPPCPAPEAAGGPSVFLFPPKPKDTLMISRTPEVTCVVVDVSHEDPEVKFNWYVDGVEVHNAKTKPREEQYNSTYRVVSVLTVLHQDWLNGKEYKCKVSNKALPAPIEKTISKAKGQPREPQVYTLPPSREEMTKNQVSLTCLVKGFYPSDIAVEWESNGQPENNYKTTPPVLDSDGSFFLYSKLTVDKSRWQQGNVFSCSVLHEALHSHYTQKSLSLSPGK
KLK5 IC50 nM pH 7.5 (enzymatic activity) / nM: 1.4
